Every entry's value here was drawn from paper PMC9482650.

- Target Desc: NHERF2_2, Q15599
- Sequence (Q15599 142-238): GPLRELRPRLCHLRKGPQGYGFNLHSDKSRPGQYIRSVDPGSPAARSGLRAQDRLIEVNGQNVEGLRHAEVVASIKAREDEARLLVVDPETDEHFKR
- Assay: holdup assay
- Set-up: key: below the threshold = too weak to quantify, mostly under pKd 3.1 to 4
- Condition Details: plain residues with an end cap or a label only (N-terminal biotin on a linker: ahx)
Measurement Type: pKd

{"columns": ["Binder", "Measurement Type", "Numeric Readout"],
 "data": [
  ["QDEKVKESYV [ABCA1, O95477]", "pKd", 3.64],
  ["QNTDDVQTSF [ACE2, Q9BYF1]", "pKd", 4.29],
  ["TQKFRASTAL [FRMPD1, Q5SYB0]", "pKd", 4.03],
  ["EKQAKGDTEF [CACYBP, Q9HB71]", "pKd", 3.55]
]}
